Consider the following molecules; for each one, report its cell viability.
# Test system: NOMO1
# assay remarks: cell viability relative to DMSO control; higher = less cytotoxic
# condition details: RPMI 5 mM glucose + 10% FBS; 48 h; 0.19 µM
Give the value, in units of %, as a plain number.

-- ask Find the recorded cell viability belonging to `C[C@@]12OC(=O)[C@@]1(NC(=O)[C@@H]2CCCl)[C@@H](O)[C@H]\3CCC\C=C3` and report it.
-- reply 66.2

-- ask Find the recorded cell viability belonging to `CC1=CC2=C(O1)C(=C3OC(=O)\C=C(C)/C3=C2)C` and report it.
-- reply 108

-- ask Find the recorded cell viability belonging to `C[C@H]([C@H]1C\C(=C(CO)/C(=O)O1)C)[C@H]2CC[C@H]3[C@@H]4C[C@H]5O[C@]56[C@@H](O)\C=C/C(=O)[C@]6(C)[C@H]4CC[C@]23C` and report it.
-- reply 115

-- ask Find the recorded cell viability belonging to `COc1ccc(Cn2ccc3ccc(C(=O)NO)cc32)cc1` and report it.
-- reply 123

-- ask Find the recorded cell viability belonging to `Cc1cc(SCc2sc(-c3ccc(C(F)(F)F)c(F)c3)nc2C)ccc1OCC(=O)O` and report it.
-- reply 98.8

-- ask Find the recorded cell viability belonging to `CC1=C2N=C([NH]C2=CC(=C1)N3CCOCC3)\C4=C(NC[C@@H](O)C5=CC=CC(=C5)Cl)\C=C/NC4=O` and report it.
-- reply 108

-- ask Find the recorded cell viability belonging to `CN(C)c1ccc(C(=O)NCCCCCCC(=O)NO)cc1` and report it.
-- reply 99.8

-- ask Find the recorded cell viability belonging to `COc1cc(/C=C/C(=O)CC(=O)/C=C/c2ccc(O)c(OC)c2)ccc1O` and report it.
-- reply 105

-- ask Find the recorded cell viability belonging to `CCCn1c(=O)c2[nH]c(-c3cnn(Cc4cccc(C(F)(F)F)c4)c3)nc2n(CC)c1=O` and report it.
-- reply 105

-- ask Find the recorded cell viability belonging to C[C@H]1CCC/C=C/C2C[C@H](O)C[C@H]2[C@H](O)/C=C/C(=O)O1 (stereo not given in full) and report it.
-- reply 4.51

-- ask Find the recorded cell viability belonging to Cc1ccccc1C(C(=O)NC1CCCCC1)N(C(=O)CNc1ccc(C#N)cc1)c1cccc(F)c1 (stereo not given) and report it.
-- reply 94

-- ask Find the recorded cell viability belonging to `CC1=C(C)C2=C(S1)[N]3C(=NN=C3[C@H](CC(=O)OC(C)(C)C)/N=C2/C4=CC=C(Cl)C=C4)C` and report it.
-- reply 81.8

-- ask Find the recorded cell viability belonging to `NC/1=N/C(=O)N(/C=C1)[C@H]2CC[C@@H](CO)O2` and report it.
-- reply 92.3

-- ask Find the recorded cell viability belonging to `Cn1cc(-c2ccc3ncc(Cc4ccc5ncccc5c4)n3n2)cn1` and report it.
-- reply 110

-- ask Find the recorded cell viability belonging to COc1ccc2cc(-c3[nH]c(-c4ccc([S+](C)[O-])cc4)nc3-c3ccncc3)ccc2c1 (stereo not given) and report it.
-- reply 99.1

-- ask Find the recorded cell viability belonging to C[Se]CCC(N)C(=O)O (stereo not given) and report it.
-- reply 83.3

-- ask Find the recorded cell viability belonging to `N/C(=N\C(=O)c1nc(Cl)c(N)nc1N)NCc1ccccc1` and report it.
-- reply 89

-- ask Find the recorded cell viability belonging to `NC12CC3CC(CC(C3)C1)C2` and report it.
-- reply 108

-- ask Find the recorded cell viability belonging to `COc1cc2nc(-c3ccc(N4CCN(C)CC4)cc3)nc(NCCN3CCOCC3)c2cc1OC` and report it.
-- reply 100

-- ask Find the recorded cell viability belonging to `COc1ccc2cccc(CCNC(C)=O)c2c1` and report it.
-- reply 84.6
